meta.source: ChEMBL document CHEMBL1122615

# TARGET_SYSTEM: Mu-type opioid receptor (Homo sapiens) (UniProt P35372)
# Sequence (P35372 whole entry): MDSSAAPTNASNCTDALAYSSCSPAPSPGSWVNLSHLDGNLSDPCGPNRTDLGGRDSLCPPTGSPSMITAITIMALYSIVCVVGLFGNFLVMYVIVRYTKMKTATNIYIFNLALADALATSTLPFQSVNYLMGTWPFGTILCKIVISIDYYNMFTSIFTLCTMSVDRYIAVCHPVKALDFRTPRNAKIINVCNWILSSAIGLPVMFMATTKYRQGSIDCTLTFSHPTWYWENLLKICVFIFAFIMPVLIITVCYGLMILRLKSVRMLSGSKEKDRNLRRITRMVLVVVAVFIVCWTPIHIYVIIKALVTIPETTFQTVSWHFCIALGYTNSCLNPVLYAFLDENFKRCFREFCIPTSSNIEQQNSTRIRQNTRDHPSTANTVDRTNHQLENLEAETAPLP
# PROTOCOL_SUMMARY: Compound was tested for irreversible antagonist activity at mu receptor by determining by ileal response to morphine after 30 min incubation at 200 nM
# Type: functional
Measured Ratio values are reported for all entries that follow.
READOUT_KIND: Ratio

> print(dat)
                                   molecule  readout.kind  test.value
1  O=C1C=CC(=O)N1[C@@H]1CCC2(O)C3Cc4ccc(O)c5c4C2(CCN3CC2CC2)C1O5 (stereo not given in full)         Ratio         1.3
2  O=C(CSSc1ccccc1[N+](=O)[O-])N[C@@H]1CCC2(O)C3Cc4ccc(O)c5c4C2(CCN3CC2CC2)C1O5 (stereo not given in full)         Ratio         2.5
3  O=C(CBr)N[C@@H]1CCC2(O)C3Cc4ccc(O)c5c4C2(CCN3CC2CC2)C1O5 (stereo not given in full)         Ratio         1.7
4  O=C(CN1C(=O)C=CC1=O)N[C@@H]1CCC2(O)C3Cc4ccc(O)c5c4C2(CCN3CC2CC2)C1O5 (stereo not given in full)         Ratio         3.3
5  C=CCN1CCC23c4c5ccc(O)c4OC2[C@H](NC(=O)/C=C/C(=O)OC)CCC3(O)C1C5 (stereo not given in full)         Ratio         6.4

###

# PROTOCOL_SUMMARY: The relative rate (to beta FNA) in the reaction of Michael acceptors with cysteine at pH 7.4 at 25 degree Celsius in the presence of 13 fold excess cysteine was reported for half-life.
# Format: ADME
Label TRUE when Relative rate >= 1; otherwise FALSE.

> print(dat)
                                   molecule  class
1  O=C1C=CC(=O)N1[C@@H]1CCC2(O)C3Cc4ccc(O)c5c4C2(CCN3CC2CC2)C1O5 (stereo partly specified)   TRUE
2  C=C(Cl)C(=O)N[C@@H]1CCC2(O)C3Cc4ccc(O)c5c4C2(CCN3CC2CC2)C1O5 (stereo partly specified)  FALSE
3  O=C(CN1C(=O)C=CC1=O)N[C@@H]1CCC2(O)C3Cc4ccc(O)c5c4C2(CCN3CC2CC2)C1O5 (stereo partly specified)   TRUE
4  CC(=O)/C=C/C(=O)N[C@@H]1CCC2(O)C3Cc4ccc(O)c5c4C2(CCN3CC2CC2)C1O5 (stereo partly specified)   TRUE
5  COC(=O)C=CC(=O)N[C@@H]1CCC2(O)C3Cc4ccc(O)c5c4C2(CCN3CC2CC2)C1O5 (stereo partly specified)  FALSE

###

# TARGET_SYSTEM: Mu-type opioid receptor (Mus musculus)
# PROTOCOL_SUMMARY: Irreversible antagonist activity at mouse vas deferens mu receptor against DADLE after 30 min at 200 nM
# Assay type: functional, tissue-based
Assign labels as follows, please: label 1 for Ratio below 1; label 0 for Ratio equal to or exceeding 1.

> print(dat)
                                   molecule    class
1  O=C(CBr)N[C@@H]1CCC2(O)C3Cc4ccc(O)c5c4C2(CCN3CC2CC2)C1O5 (stereo partly drawn)  label 0
2  C#CC(=O)N[C@@H]1CCC2(O)C3Cc4ccc(O)c5c4C2(CCN3CC2CC2)C1O5 (stereo partly drawn)  label 0
3  O=C1C=CC(=O)N1[C@@H]1CCC2(O)C3Cc4ccc(O)c5c4C2(CCN3CC2CC2)C1O5 (stereo partly drawn)  label 1
4  O=C(N[C@@H]1CCC2(O)C3Cc4ccc(O)c5c4C2(CCN3CC2CC2)C1O5)C(=O)c1ccccc1 (stereo partly drawn)  label 1
5  COC(=O)/C=C/C(=O)N[C@@H]1CC[C@@]2(O)[C@H]3Cc4ccc(O)c5c4[C@@]2(CCN3CC2CC2)[C@H]1O5  label 0
6  O=C(CN1C(=O)C=CC1=O)N[C@@H]1CCC2(O)C3Cc4ccc(O)c5c4C2(CCN3CC2CC2)C1O5 (stereo partly drawn)  label 0
7  C=C(Cl)C(=O)N[C@@H]1CCC2(O)C3Cc4ccc(O)c5c4C2(CCN3CC2CC2)C1O5 (stereo partly drawn)  label 0
